Data origin, for the record: paper PMC12892976

- Test system: Aspergillus flavus
- protocolText: checkerboard drug interaction (FICI, MICc);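 further: simplified diagonal checkerboard screen pairing azole antifungals with FPPS inhibitors, FICI calculated under the Loewe additivity model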
- Assay type: cell-based
- assayConditions: A. flavus; MIC-MICc fold decrease of the inhibitor, with itraconazole
measurementLabel: INH FD (ITR:INH)
Response field accepts a number only; no unit should be typed.

compound="CCCCCCCCCCCCN1CCC[C@H]1C(=O)N[C@@H](CC(=O)OC)C(=O)OC [dmPLA12]" measurementlabel="INH FD (ITR:INH)" recordednumber=4
compound="CCCCCCCCCN1CCC[C@H]1C(=O)N[C@@H](CC(=O)O)C(=O)O [PLA9]" measurementlabel="INH FD (ITR:INH)" recordednumber=2
compound="CCCCCCCCCCN1CCC[C@H]1C(=O)N[C@H](CC(=O)OC)C(=O)OC [dmPDA10]" measurementlabel="INH FD (ITR:INH)" recordednumber=2

// lookup INH FD (ITR:INH) | system=Aspergillus flavus | key= CCCCCCCCCN1CCC[C@H]1C(=O)N[C@H](CC(=O)OC)C(=O)OC [dmPDA9] 1

And what about the compound CCCCCCCCCCCN1CCC[C@H]1C(=O)N[C@H](CC(=O)O)C(=O)O [PDA11] ? 1
